Ref: ChEMBL document CHEMBL5370624

Consider the following molecules; for each one, report its EC50.
- STUDY TARGET: Toll-like receptor 4 (Homo sapiens, UniProt O00206)
- Sequence (O00206 whole entry): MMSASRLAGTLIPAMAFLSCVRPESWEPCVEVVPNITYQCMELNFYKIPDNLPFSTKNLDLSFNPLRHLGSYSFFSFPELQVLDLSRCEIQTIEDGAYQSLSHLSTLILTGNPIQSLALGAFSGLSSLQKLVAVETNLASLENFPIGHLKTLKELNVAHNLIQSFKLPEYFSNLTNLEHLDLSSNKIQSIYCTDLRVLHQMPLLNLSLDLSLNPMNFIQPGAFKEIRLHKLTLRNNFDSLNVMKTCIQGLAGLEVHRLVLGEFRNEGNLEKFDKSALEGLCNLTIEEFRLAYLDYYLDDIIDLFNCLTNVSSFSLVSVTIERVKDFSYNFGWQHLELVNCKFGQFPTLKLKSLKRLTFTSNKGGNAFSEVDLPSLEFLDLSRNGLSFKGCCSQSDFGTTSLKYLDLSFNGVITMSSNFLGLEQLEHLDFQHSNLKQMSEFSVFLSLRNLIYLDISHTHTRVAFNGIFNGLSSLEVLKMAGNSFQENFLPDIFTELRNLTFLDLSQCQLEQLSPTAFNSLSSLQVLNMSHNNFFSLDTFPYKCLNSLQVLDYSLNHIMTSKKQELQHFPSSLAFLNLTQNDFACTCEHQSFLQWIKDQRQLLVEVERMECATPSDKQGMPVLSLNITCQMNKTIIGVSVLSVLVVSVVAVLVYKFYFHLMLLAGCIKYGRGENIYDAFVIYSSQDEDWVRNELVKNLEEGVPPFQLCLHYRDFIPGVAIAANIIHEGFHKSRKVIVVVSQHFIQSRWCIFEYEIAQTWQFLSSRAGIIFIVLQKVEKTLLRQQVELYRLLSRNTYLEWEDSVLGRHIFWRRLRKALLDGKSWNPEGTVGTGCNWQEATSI
- MEASUREMENT NOTES: Agonist activity at TLR4 in human PBMC cells assessed as induction of RANTES release incubated for 20 hrs by ELISA
- Assay type: cell-based
The reply should be a number in nM, with the unit left off.

// EC50 lookup, key: CCCCCCCCCCC[C@H](CC(=O)NCCO[C@@H]1O[C@H](CO)[C@@H](OS(=O)(=O)O)[C@@H](NC(=O)C[C@@H](CCCCCCCCCCC)OC(=O)CCCCCCCCC)[C@H]1NC(=O)C[C@@H](CCCCCCCCCCC)OC(=O)CCCCCCCCC)OC(=O)CCCCCCCCC.CCN(CC)CC 7.01

// EC50 lookup, key: CCCCCCCCCCC[C@H](CC(=O)N[C@H]1[C@H](OC[C@H](NC(=O)C[C@@H](CCCCCCCCCCC)OCCCCCCCCCC)C(=O)O)O[C@H](CO)[C@@H](OS(=O)(=O)O)[C@H]1NC(=O)C[C@@H](CCCCCCCCCCC)OCCCCCCCCCC)OCCCCCCCCCC.CCN(CC)CC 0.46
